Biological target: CK1δ (Homo sapiens (Human), UniProt P48730)
Sequence (P48730 whole entry): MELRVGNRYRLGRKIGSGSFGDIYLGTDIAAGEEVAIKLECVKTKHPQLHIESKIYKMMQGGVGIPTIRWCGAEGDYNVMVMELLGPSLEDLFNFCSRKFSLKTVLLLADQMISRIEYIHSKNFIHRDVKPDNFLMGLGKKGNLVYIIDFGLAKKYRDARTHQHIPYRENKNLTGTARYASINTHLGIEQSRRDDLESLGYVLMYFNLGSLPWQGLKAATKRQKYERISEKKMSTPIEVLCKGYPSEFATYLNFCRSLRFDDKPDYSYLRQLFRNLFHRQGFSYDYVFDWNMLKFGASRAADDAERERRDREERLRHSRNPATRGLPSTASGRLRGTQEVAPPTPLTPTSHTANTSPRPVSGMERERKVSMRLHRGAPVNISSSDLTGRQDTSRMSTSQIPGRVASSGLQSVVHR
Experiment: LanthaScreen Eu kinase binding assay, CK1δ
Categories are assigned from the measured inhibition at 1 µM using these intervals: range 1: < 10%; range 2: ≥ 10% and < 20%; range 3: ≥ 20%

// below: answered compounds
input: Sort into band: "Cc1cccc(-c2nc(-c3ccccc3F)[nH]c2C2=CCOCC2)c1"
output: range 1

input: Pick a category. Item: "Cc1cccc(-c2nc(-c3ccc([N+](=O)[O-])cc3)[nH]c2-c2ccncc2)c1"
output: range 3

input: Assign a bin to "Cc1cccc(-c2nc(-c3ccccc3Br)[nH]c2C2=CCOCC2)c1"
output: range 3

input: Assign a bin to "Cc1cccc(-c2nc(-c3ccc(NS(C)(=O)=O)cc3)[nH]c2-c2ccncc2)c1"
output: range 2

input: Category of "Cc1cccc(-c2nc(C#CCCO)[nH]c2-c2ccncc2)c1" :
output: range 2

input: Record "Cc1cccc(-c2nc(-c3ccc(N)cc3)[nH]c2-c2ccncc2)c1" — which class?
output: range 3

input: Which bin, given its inhibition at 1 µM, does "Cc1cccc(-c2nc(CN(C)C)[nH]c2-c2ccncc2)c1" occupy?
output: range 1

input: Exam item: assign "COc1ccc2cc(-c3nc(-c4cccc(C)c4)c(C4=CCOCC4)[nH]3)ccc2c1" to the correct category.
output: range 2

Continuing:
input: Category of C[S+]([O-])c1ccc(-c2nc(-c3ccc(F)cc3)c(-c3ccncc3)o2)cc1 (centres unmarked) :
output: range 3

input: Input "Cc1cccc(-c2nc(-c3ccc([N+](=O)[O-])cc3)[nH]c2C2=CCOCC2)c1" ; output its category
output: range 2

input: Entry "Cc1cccc(-c2nc(-c3c(F)cccc3F)[nH]c2C2=CCOCC2)c1" belongs to which category?
output: range 1

====

Target: CK1ϵ (Homo sapiens (Human))
Sequence (P49674 whole entry): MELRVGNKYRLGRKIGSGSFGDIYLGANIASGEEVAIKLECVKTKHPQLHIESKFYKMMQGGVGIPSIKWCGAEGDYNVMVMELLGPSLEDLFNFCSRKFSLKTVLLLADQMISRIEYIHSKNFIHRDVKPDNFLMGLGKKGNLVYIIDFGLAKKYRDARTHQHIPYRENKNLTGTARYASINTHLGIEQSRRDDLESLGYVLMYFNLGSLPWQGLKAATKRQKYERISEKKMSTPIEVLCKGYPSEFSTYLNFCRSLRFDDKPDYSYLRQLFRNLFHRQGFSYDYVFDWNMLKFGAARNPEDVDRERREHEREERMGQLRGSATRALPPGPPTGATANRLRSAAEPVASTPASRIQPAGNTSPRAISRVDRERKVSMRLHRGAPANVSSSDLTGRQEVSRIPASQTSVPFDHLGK
Assay: LanthaScreen Eu kinase binding assay, CK1ϵ
Details: read-out: CK1ϵ IC50 ± SEM
pIC50: −log10 of the molar value.
Rule: Yes for pIC50 not less than 7, No for anything less.

Take a look at these entries with their results.
input: Given Cc1cccc(-c2nc(-c3ccc([S+](C)[O-])cc3)[nH]c2-c2ccncc2)c1 (stereo not drawn) [IM-28] , state whether its pIC50 is at least 7.
output: No

input: Assess whether reported pIC50 for Cc1cccc(-c2nc(-c3ccc4ccccc4c3F)[nH]c2-c2ccncc2)c1 [IM-04] sits at 7 or higher.
output: No

input: For this molecule, is measured pIC50 7 or higher? C[S+]([O-])c1ccc(-c2nc(-c3ccc(F)cc3)c(C3=CCOCC3)[nH]2)cc1 (stereo not drawn) [IM-25]
output: No

input: For this molecule, is measured pIC50 7 or higher? Cc1cccc(-c2nc(-c3c(F)cccc3F)[nH]c2C2=CCOCC2)c1 [IM-18]
output: No

input: Confirm if pIC50 reported for the molecule Cc1cccc(-c2nc(-c3ccc(C(N)=O)cc3)[nH]c2-c2ccncc2)c1 [IM-39] is 7 or above.
output: No

Next:
input: Please tell me: is the molecule Fc1ccc(-c2nc(-c3ccc4ccccc4c3F)[nH]c2-c2ccncc2)cc1 [IM-29] at or over 7 in terms of pIC50?
output: Yes

input: // inclusive: pIC50 at least 7? input: Fc1ccc(-c2nc(-c3c(F)cccc3F)[nH]c2-c2ccncc2)cc1 [IM-31]
output: Yes

input: Tell me whether pIC50 is at least 7 here: Fc1ccc(-c2nc(-c3ccccc3F)[nH]c2C2=CCOCC2)cc1 [IM-20]
output: No

input: Please tell me: is the molecule Cc1cccc(-c2nc(-c3ccc(C(=O)O)cc3)[nH]c2-c2ccncc2)c1 [IM-38] at or over 7 in terms of pIC50?
output: No
